I'd appreciate it if you could supply IC50 values for the items below.
Biological target: Neurogenic locus notch homolog protein 1 (Homo sapiens, UniProt P46531)
Sequence (P46531 whole entry): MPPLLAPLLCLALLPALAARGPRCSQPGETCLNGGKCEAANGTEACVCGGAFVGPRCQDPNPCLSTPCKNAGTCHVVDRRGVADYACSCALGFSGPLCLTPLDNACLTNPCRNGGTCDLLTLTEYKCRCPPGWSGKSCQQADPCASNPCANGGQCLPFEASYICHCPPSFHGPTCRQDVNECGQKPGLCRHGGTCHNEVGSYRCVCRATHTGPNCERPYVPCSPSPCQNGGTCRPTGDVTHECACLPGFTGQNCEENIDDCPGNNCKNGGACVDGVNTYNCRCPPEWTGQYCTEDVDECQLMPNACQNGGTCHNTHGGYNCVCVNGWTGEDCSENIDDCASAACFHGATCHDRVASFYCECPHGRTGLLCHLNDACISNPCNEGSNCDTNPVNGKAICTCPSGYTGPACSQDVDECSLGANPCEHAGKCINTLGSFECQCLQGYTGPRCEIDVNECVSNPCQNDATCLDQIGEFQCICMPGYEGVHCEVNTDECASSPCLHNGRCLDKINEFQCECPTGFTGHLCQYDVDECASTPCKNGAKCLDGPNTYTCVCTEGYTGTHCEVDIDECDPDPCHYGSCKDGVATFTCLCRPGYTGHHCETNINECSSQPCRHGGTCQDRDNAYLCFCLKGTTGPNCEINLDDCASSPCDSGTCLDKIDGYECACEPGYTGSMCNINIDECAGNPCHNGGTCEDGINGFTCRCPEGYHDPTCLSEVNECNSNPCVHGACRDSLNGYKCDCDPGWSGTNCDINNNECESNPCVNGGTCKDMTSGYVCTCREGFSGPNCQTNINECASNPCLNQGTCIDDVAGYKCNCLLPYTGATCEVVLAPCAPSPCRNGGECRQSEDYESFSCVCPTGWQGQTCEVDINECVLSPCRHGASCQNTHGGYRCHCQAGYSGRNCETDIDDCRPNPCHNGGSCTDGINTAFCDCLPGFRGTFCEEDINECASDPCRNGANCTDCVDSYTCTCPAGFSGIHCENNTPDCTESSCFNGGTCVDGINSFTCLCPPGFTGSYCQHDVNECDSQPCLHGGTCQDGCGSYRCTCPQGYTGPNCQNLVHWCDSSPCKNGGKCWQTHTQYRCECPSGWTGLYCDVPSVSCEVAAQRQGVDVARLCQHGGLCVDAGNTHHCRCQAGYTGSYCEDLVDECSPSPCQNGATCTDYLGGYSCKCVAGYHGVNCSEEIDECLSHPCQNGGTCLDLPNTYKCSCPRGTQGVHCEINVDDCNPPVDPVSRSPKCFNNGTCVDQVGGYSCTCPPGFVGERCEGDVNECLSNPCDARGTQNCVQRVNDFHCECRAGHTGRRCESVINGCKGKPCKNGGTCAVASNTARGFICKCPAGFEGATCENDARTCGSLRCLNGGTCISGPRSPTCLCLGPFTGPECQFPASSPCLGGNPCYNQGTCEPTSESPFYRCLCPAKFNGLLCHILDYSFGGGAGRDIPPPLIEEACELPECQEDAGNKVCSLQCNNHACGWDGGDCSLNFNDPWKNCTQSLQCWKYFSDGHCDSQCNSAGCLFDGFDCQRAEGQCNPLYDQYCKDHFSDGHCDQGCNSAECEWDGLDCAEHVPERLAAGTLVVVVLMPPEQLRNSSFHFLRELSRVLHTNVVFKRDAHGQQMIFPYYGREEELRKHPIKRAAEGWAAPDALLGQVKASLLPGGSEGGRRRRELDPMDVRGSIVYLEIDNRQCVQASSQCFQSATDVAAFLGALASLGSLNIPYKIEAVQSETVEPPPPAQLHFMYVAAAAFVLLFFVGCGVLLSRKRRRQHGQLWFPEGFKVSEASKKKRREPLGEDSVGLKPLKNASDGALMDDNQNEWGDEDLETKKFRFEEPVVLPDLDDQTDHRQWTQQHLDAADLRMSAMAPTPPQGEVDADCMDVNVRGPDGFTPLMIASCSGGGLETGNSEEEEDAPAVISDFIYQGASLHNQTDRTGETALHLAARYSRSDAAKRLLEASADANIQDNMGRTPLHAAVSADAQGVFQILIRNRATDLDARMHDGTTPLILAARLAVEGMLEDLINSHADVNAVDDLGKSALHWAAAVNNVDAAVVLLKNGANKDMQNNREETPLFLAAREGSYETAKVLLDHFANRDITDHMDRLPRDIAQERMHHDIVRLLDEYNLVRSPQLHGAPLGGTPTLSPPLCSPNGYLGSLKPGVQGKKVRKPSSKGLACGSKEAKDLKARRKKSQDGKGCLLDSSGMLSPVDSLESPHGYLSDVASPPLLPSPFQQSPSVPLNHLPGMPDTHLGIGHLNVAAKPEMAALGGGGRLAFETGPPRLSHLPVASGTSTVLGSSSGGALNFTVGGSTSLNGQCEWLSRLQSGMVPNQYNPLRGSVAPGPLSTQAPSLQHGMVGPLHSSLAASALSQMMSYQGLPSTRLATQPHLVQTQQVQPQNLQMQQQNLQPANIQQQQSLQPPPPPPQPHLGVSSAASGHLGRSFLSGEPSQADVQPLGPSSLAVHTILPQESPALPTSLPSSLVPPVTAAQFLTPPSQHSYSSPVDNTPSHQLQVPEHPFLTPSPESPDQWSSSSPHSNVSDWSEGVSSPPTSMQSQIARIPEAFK
Assay: Inhibition of human Notch1 expressed in HEK293 cells coexpressing luciferase reporter measured after 20 hrs by steady-glo chemiluminescence assay

Cc1noc(N2C[C@H]3CC[C@@H](C2)[C@@H]3Nc2nc3c(OCC(F)(F)F)ccc(C(F)(F)F)n3n2)n1 :: > 10 µM
Cc1nnc(N2C[C@H]3CC[C@@H](C2)[C@@H]3Nc2nc3c(O[C@@H](C)C(F)(F)F)ccc(C(F)(F)F)n3n2)o1 :: > 10 µM

Given Cc1cc(N2C[C@H]3CC[C@@H](C2)[C@@H]3Nc2nc3c(OCC(F)F)ccc(C(F)(F)F)n3n2)ncn1 , state its recorded IC50. > 10 µM

Source of measurements: BindingDB's records for doi:10.1021/acs.jmedchem.0c00909
